target: T1, gH/gL/UL128/UL130/UL131A pentamer complex expressed from MVA-PC in BHK-21 cells (human cytomegalovirus, UniProt P12824 24-743; P16832 31-278; P16837 28-171; P16772 1-214; F5HET4 19-129); assay: FC competition, MVA-PC BHK-21; unlabelled row Ab; competitor: biotinylated 54E11
T1 construct: whole, on cells
EXPERIMENTAL_READOUT: Binding Inhibition (%)
Unit % implied. Number only.

Would you please look over these solved cases?
>>> reported("21F6 (antibody, V domains shown, also called NAb 21F6) VH: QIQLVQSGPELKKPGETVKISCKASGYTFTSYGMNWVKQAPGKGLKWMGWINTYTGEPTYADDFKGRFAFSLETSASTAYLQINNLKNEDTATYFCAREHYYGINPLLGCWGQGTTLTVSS VL: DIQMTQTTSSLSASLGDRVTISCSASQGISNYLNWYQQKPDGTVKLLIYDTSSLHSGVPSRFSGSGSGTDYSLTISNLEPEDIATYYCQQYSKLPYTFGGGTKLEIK")
100
>>> reported("18F10 (antibody, V domains shown, also called NAb 18F10) VH: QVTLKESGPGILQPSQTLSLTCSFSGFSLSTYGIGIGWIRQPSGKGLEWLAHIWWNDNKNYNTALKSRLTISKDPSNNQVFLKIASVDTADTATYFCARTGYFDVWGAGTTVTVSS VL: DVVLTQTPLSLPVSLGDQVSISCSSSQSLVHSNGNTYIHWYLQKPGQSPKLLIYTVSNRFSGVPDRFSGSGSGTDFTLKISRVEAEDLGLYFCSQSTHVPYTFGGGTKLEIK")
0

Here is the next item to consider.
Read off the recorded Binding Inhibition (%) for 12E2 (antibody, V domains shown, also called NAb 12E2) VH: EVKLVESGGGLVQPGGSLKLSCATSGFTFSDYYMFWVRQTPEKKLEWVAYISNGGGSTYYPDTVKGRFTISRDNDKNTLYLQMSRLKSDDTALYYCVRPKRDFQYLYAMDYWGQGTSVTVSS VL: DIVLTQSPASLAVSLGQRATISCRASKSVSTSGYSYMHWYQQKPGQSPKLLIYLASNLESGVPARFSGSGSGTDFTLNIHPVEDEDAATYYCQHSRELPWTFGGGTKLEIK 0
